# Tested on: S. pneumoniae 157E
# assay: In vitro minimum inhibitory concentration (MIC) assay, S. pneumoniae
# Format: cell-based
# Design: key: Compounds which showed superior inhibition of S. aureus, S. pseumoniae and E. coli are indicated by “***,”; compounds which showed very good or good inhibition of S. aureus, S. pseumoniae and E. coli are indicated by “**” or “*” respectively; compounds which showed very good or good inhibition of S. aureus, S. pseumoniae and E. coli are indicated by “**” or “*” respectively
# assay setup: broth microdilution in CAMHB, 35° C., approximately 18 hour
# Protocol: The following assay is used to determine the efficacy of the tetracycline compounds against common bacteria. 2 mg of each compound is dissolved in 100 μl of DMSO. The solution is then added to cation-adjusted Mueller Hinton broth (CAMHB), which results in a final compound concentration of 200 μg per ml. […] 50 μl of the cell suspensions are added to each well of microtiter plates. […] The plates are read with a microplate reader and are visually inspected when necessary. […]
measure: Median MIC for S. pneumoniae 157E

The examples below pair each entry with its known result.
1. CN(C)c1cc(-c2ncco2)c(O)c2c1C[C@H]1C[C@H]3[C@H](N(C)C)C(O)=C(C(N)=O)C(=O)[C@@]3(O)C(O)=C1C2=O; **
2. CN(C)c1cc(C(=O)N2CCCCC2)c(O)c2c1C[C@H]1C[C@H]3[C@H](N(C)C)C(O)=C(C(N)=O)C(=O)[C@@]3(O)C(O)=C1C2=O; *
3. CONC(=O)c1cc(N(C)C)c2c(c1O)C(=O)C1=C(O)[C@]3(O)C(=O)C(C(N)=O)=C(O)[C@@H](N(C)C)[C@@H]3C[C@@H]1C2; *
4. CN(C)c1cc(-c2nccs2)c(O)c2c1C[C@H]1C[C@H]3[C@H](N(C)C)C(O)=C(C(N)=O)C(=O)[C@@]3(O)C(O)=C1C2=O; **

Now look at this entry.
*Q* Fill in the blank: the reported Median MIC for S. pneumoniae 157E of `COC(=O)C#Cc1cc(N(C)C)c2c(c1O)C(=O)C1=C(O)[C@]3(O)C(=O)C(C(N)=O)=C(O)[C@H](N(C)C)[C@@H]3C[C@@H]1C2` is ____.
*A* ***
